- System: Fusarium roseum
- CONDITION_DETAILS: 1 μmol/ml, compound in methanol, more than 10 days at 20° C.
OUTCOME_MEASURE: Inhibition of the growth of the Fusarium roseum fungi

I am curious: what Inhibition of the growth of the Fusarium roseum fungi value has been reported for CCCCCNC1OC(C)[C@H](O)C(O)C1O (stereo partly drawn) [compound Ie] ? 94%

# repeat for CCCCCCCCCCCCNC1OC(CO)C(O)C(O)C1O (stereo not drawn) [compound Ik] 96%

# repeat for CCCCCCCCCCCCNCC(O)C(O)C(O)C(O)CO (stereo not drawn) [compound IIIc] 100%

====

- Tested on: Fusarium roseum
- CONDITION_DETAILS: 10 μmol/ml, compound in methanol, more than 10 days at 20° C.
OUTCOME_MEASURE: Inhibition of the growth of the Fusarium roseum fungi (%)
Number in %, nothing else.

I am curious: what Inhibition of the growth of the Fusarium roseum fungi value has been reported for CC1OC(NCCCCCCCCCCCCN)C(O)C(O)C1O (centres unmarked) [compound Ii] ? 93

# repeat for CCCCCNC1OC(C)[C@H](O)C(O)C1O (some centres unmarked) [compound Ie] 100

# repeat for CCCCCNC1OC(C)[C@H](O)C(O)C1O (some centres unmarked) [compound Ic] 99

# repeat for CC1OC(NCCCCCNC2OC(C)[C@H](O)C(O)C2O)C(O)C(O)[C@H]1O (some centres unmarked) [compound Ih] 93

# repeat for CCCCNC1OC(C)[C@H](O)C(O)C1O (some centres unmarked) [compound Ib] 70
